Target: FTase (Rattus norvegicus, UniProt Q02293+Q04631)
Experiment: FTase enzyme assay
Assay type: biochemical
pIC50: −log10 of the molar value.
measured.metric: pIC50

*Q* Recorded pIC50 of CC(C)=CCC/C(C)=C/Cn1cc(CC(P(=O)([O-])[O-])P(=O)([O-])[O-])nn1.[Na+].[Na+].[Na+].[Na+] [Compound 11] , please.
*A* < 3.30
